B1: CLCN6 (parent)
chain: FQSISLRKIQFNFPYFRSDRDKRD

Variants of: B1
testSummary: protein stability index of a GFP-peptide fusion (GPS, HEK-293T) (PSI 1-6); higher = more stable;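 note: lentivirally expressed fusions sorted by FACS into six bins by GFP to DsRed ratio, PSI derived from sequencing read proportions per bin multiplied by bin number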
runParameters: c terminus: a fixed tail appended
measuredMetric: protein stability index
Please respond with just the number, no unit label.

- mutationKey: "K22M"
  protein stability index: 1.82
- mutationKey: "R7V"
  protein stability index: 2.97
- mutationKey: "P14N"
  protein stability index: 1.81
- mutationKey: "F13K"
  protein stability index: 1.8
- mutationKey: "R20L"
  protein stability index: 1.22

--- query ---
Exercise: Entry S5G : reported protein stability index = ?
Key: 1.02

Source listed as the supplement of paper PMC10567573.
